Record form. Attribute: IC50. Fill in for each entry.
- TGT: HLA-DRB1*01:01 (Homo sapiens, UniProt P01903+P01911, A100R/D57E/F55L/F60I/F76Y/I96L/L162R/M171V/P40L/Q125E/R42F/V115G/Y59C)
- Construct: EBV transformed homozygous cell lines were used as sources of MHC molecules; endogenous in cells; host or cells: EBV transformed homozygous cell lines
- ASSAY_METHOD_TEXT: HLA class II peptide binding, inhibition of radiolabeled peptide binding to purified MHC
- CONDITION_SET: citrullinated 15-mer (X); purified MHC, inhibition of radiolabeled peptide binding; dash = IC50 >40,000 nM; read-out: DRB1*01:01 binding capacity, Cit peptide (IC50 nM)
Square brackets hold non-standard residues; d marks the D form. Peptide text beside a SMILES is read from it. Cit = NC(=O)NCCC[C@H](N)C(=O)O
One number for each entry, in nM.

>>> measurement("CC(C)C[C@H](NC(=O)[C@H](C)NC(=O)[C@H](CO)NC(=O)CNC(=O)[C@H](CC(C)C)NC(=O)[C@H](CO)NC(=O)[C@H](Cc1ccc(O)cc1)NC(=O)[C@@H](NC(=O)[C@@H](N)CCCNC(=N)N)[C@@H](C)O)C(=O)N[C@@H](CCCNC(N)=O)C(=O)N1CCC[C@H]1C(=O)N[C@@H](CO)C(=O)N[C@H](C(=O)N[C@@H](CO)C(=O)N[C@@H](CCCNC(=N)N)C(=O)O)[C@@H](C)O [RTYSLGSALXPSTSR] (H-RTYSLGSAL[Cit]PSTSR-OH)")
14

Kindly review the next molecule as well.
Read off the recorded IC50 for CSCC[C@H](NC(=O)[C@H](CCCNC(=N)N)NC(=O)[C@H](CCCNC(N)=O)NC(=O)[C@H](Cc1ccc(O)cc1)NC(=O)[C@H](CO)NC(=O)[C@H](CO)NC(=O)[C@H](CO)NC(=O)[C@H](CO)NC(=O)[C@@H](NC(=O)[C@H](CO)NC(=O)[C@H](CCCNC(=N)N)NC(=O)[C@@H](NC(=O)[C@H](CO)NC(=O)[C@@H](N)CCSC)[C@@H](C)O)C(C)C)C(=O)N[C@@H](Cc1ccccc1)C(=O)O [MSTRSVSSSSYXRMF] (H-MSTRSVSSSSY[Cit]RMF-OH)
1080

---

- TGT: HLA-DRB1*04:01 (Homo sapiens, UniProt P01903+P01911, A100K/A169T/F76Y/I96L/K127E/L162R/M171V/N62H/P40V/Q125Y/R42H/S133A/S149N/S66Y/V115G/V209L/W38E)
- Construct: EBV transformed homozygous cell lines were used as sources of MHC molecules; endogenous in cells; host or cells: EBV transformed homozygous cell lines
- ASSAY_METHOD_TEXT: HLA class II peptide binding, inhibition of radiolabeled peptide binding to purified MHC
- CONDITION_SET: citrullinated 15-mer (X); purified MHC, inhibition of radiolabeled peptide binding; dash = IC50 >40,000 nM; read-out: DRB1*04:01 binding capacity, Cit peptide (IC50 nM)
Square brackets hold non-standard residues; d marks the D form. Peptide text beside a SMILES is read from it. Cit = NC(=O)NCCC[C@H](N)C(=O)O
QUANTITY_KIND: IC50 (nM)
Give bare numbers, in nM.

Read off the recorded IC50 for CSCC[C@H](NC(=O)[C@H](CCCNC(N)=O)NC(=O)[C@H](CCCNC(=N)N)NC(=O)[C@H](Cc1ccc(O)cc1)NC(=O)[C@H](CO)NC(=O)[C@H](CO)NC(=O)[C@H](CO)NC(=O)[C@H](CO)NC(=O)[C@@H](NC(=O)[C@H](CO)NC(=O)[C@H](CCCNC(=N)N)NC(=O)[C@@H](NC(=O)[C@H](CO)NC(=O)[C@@H](N)CCSC)[C@@H](C)O)C(C)C)C(=O)N[C@@H](Cc1ccccc1)C(=O)O [MSTRSVSSSSYRXMF] (H-MSTRSVSSSSYR[Cit]MF-OH)
443

---

- TGT: HLA-DRB1*04:01 (Homo sapiens, UniProt P01903+P01911, A100K/A169T/F76Y/I96L/K127E/L162R/M171V/N62H/P40V/Q125Y/R42H/S133A/S149N/S66Y/V115G/V209L/W38E)
- Construct: EBV transformed homozygous cell lines were used as sources of MHC molecules; endogenous in cells; host or cells: EBV transformed homozygous cell lines
- ASSAY_METHOD_TEXT: HLA class II peptide binding, inhibition of radiolabeled peptide binding to purified MHC
- CONDITION_SET: citrullinated 15-mer peptide (X = citrulline); purified HLA-DRB1*04:01; read-out: DRB1*04:01 binding capacity, Cit peptide (IC50 nM)
Square brackets hold non-standard residues; d marks the D form. Peptide text beside a SMILES is read from it. Cit = NC(=O)NCCC[C@H](N)C(=O)O
QUANTITY_KIND: IC50 (nM)
One number for each entry, in nM.

>>> measurement("CSCC[C@H](N)C(=O)N[C@@H](C)C(=O)N[C@@H](CCCNC(=N)N)C(=O)N[C@@H](Cc1c[nH]cn1)C(=O)N[C@@H](CC(C)C)C(=O)N[C@@H](CCCNC(N)=O)C(=O)N[C@@H](CCC(=O)O)C(=O)N[C@@H](Cc1ccc(O)cc1)C(=O)N[C@@H](CCC(N)=O)C(=O)N[C@@H](CC(=O)O)C(=O)N[C@@H](CC(C)C)C(=O)N[C@@H](CC(C)C)C(=O)N[C@@H](CC(N)=O)C(=O)N[C@H](C(=O)N[C@@H](CCCCN)C(=O)O)C(C)C [MARHLXEYQDLLNVK] (H-MARHL[Cit]EYQDLLNVK-OH)")
3130

Kindly review the next molecule as well.
Read off the recorded IC50 for CC(C)C[C@H](NC(=O)[C@H](CO)NC(=O)[C@H](CCC(N)=O)NC(=O)[C@@H](NC(=O)[C@H](CCC(N)=O)NC(=O)[C@H](CCCNC(N)=O)NC(=O)[C@H](CCCNC(=N)N)NC(=O)[C@H](Cc1ccc(O)cc1)NC(=O)[C@H](CCC(=O)O)NC(=O)[C@@H](NC(=O)[C@@H](N)CO)[C@@H](C)O)C(C)C)C(=O)N[C@H](C(=O)N[C@@H](CS)C(=O)N[C@@H](CCC(=O)O)C(=O)N[C@H](C(=O)O)C(C)C)[C@@H](C)O [STEYRXQVQSLTCEV] (H-STEYR[Cit]QVQSLTCEV-OH)
860

---

- TGT: HLA-DRB1*01:01 (Homo sapiens, UniProt P01903+P01911, A100R/D57E/F55L/F60I/F76Y/I96L/L162R/M171V/P40L/Q125E/R42F/V115G/Y59C)
- Construct: EBV transformed homozygous cell lines were used as sources of MHC molecules; endogenous in cells; host or cells: EBV transformed homozygous cell lines
- ASSAY_METHOD_TEXT: HLA class II peptide binding, inhibition of radiolabeled peptide binding to purified MHC
- CONDITION_SET: citrullinated 15-mer peptide (X = citrulline); purified HLA-DRB1*01:01; read-out: DRB1*01:01 binding capacity, Cit peptide (IC50 nM)
Square brackets hold non-standard residues; d marks the D form. Peptide text beside a SMILES is read from it. Cit = NC(=O)NCCC[C@H](N)C(=O)O
Record form. Attribute: IC50. Fill in for each entry.
One number for each entry, in nM.

>>> measurement("C[C@H](NC(=O)CNC(=O)[C@H](C)NC(=O)[C@@H]1CCCN1C(=O)CNC(=O)[C@@H](NC(=O)[C@H](CCCNC(=N)N)NC(=O)CNC(=O)[C@H](CCCNC(=N)N)NC(=O)[C@@H](N)CCC(=O)O)[C@@H](C)O)C(=O)N[C@@H](C)C(=O)NCC(=O)N[C@@H](C)C(=O)N[C@@H](CCCNC(N)=O)C(=O)NCC(=O)O [ERGRTGPAGAAGAXG] (H-ERGRTGPAGAAGA[Cit]G-OH)")
1120

Read off the recorded IC50 for CC(C)C[C@H](NC(=O)CNC(=O)[C@@H]1CCCN1C(=O)[C@H](Cc1ccccc1)NC(=O)CNC(=O)[C@H](CCCNC(N)=O)NC(=O)[C@H](CCC(=O)O)NC(=O)CNC(=O)[C@H](CCCNC(=N)N)NC(=O)[C@H](CCC(N)=O)NC(=O)CNC(=O)[C@@H]1CCCN1)C(=O)N1CCC[C@H]1C(=O)NCC(=O)N1CCC[C@H]1C(=O)O [PGQRGEXGFPGLPGP] (H-PGQRGE[Cit]GFPGLPGP-OH)
10500

---

- TGT: DRB1*04:05 (Homo sapiens, UniProt P01903+P01911, A100R/A169T/D86S/F76Y/I96L/K127E/L162R/M171V/N62H/P40V/Q125Y/R42H/S133A/S149N/S66Y/V115G/V209L/W38E)
- ASSAY_METHOD_TEXT: HLA class II peptide binding, inhibition of radiolabeled peptide binding to purified MHC
- CONDITION_SET: SE+, competition with radiolabeled peptide, two-day incubation, three or more independent experiments
Ends that are not written are not given here.
QUANTITY_KIND: IC50

>>> measurement("SAVRLRSSVPGVR [Vimentin 66–78 WT]")
"3960 nM"
>>> measurement("LQYMRADQAAGGLR [Collagen II 1236–1249 WT]")
"1770 nM"
>>> measurement("NQDFTNRINKLKNS [Fibrinogen 78–91 WT]")
"12800 nM"

Kindly review the next sequence as well.
Read off the recorded IC50 for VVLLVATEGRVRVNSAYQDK [Aggrecan 84–103 WT]
183 nM
